subject_of_test: membrane-bound tissue factor (TF) on cells (human, UniProt P13726 33-295)
test_protocol: cell-based or functional assay
assay_readout: % kill at 10 µg/mL, A431 cells, ADC killing assay (%)
Expressed in %, but write only the number.

binder | experimental_result
HuMab-TF-111-mcMMAF (antibody, IgG1, V domains shown, mcMMAF drug-linker alkylated to cysteines of the reduced antibody (positions not given), DAR 4.1 by RP-HPLC, 4.2 by HIC) VH: QVQLVESGGGVVQPGRSLRLSCAGSGFTFNRYAMYWVRQAPGKGLDWVAVISNDGINKYYADSVKGRFTISRDNSKNTLYLQMNSLRAEDTAVYYCARDHTMVRGAFDYWGQGTLVTVSS VL: EIVLTQSPATLSLSPGERATLSCRASQSVSSYLAWYQQKPGQAPRLLIYDASNRATGIPARFSGSGSGTDFTLTISSLEPEDFAVYYCQQRSNWPLTFGGGTKVEIK | 73

### Prompt So what does the record say about % kill at 10 µg/mL, A431 cells, ADC killing assay for HuMab-TF-098-vcMMAE (antibody, IgG1, V domains shown, vcMMAE drug-linker alkylated to cysteines of the reduced antibody (positions not given), DAR 3.9 by RP-HPLC, 3.7 by HIC) VH: QVQLVQSGAEVRKPGSSVKVSCKASGGSFNNYPIFWVRQAPGQGFEWMGRIIPILGITAYAQKFQGRVTITADKSTSTAYMELNSLRSEDTAVYYCAGGDDLDAFDIWGQGTMVSVSS VL: DIQMTQSPSSLSASVGDRVTITCRASQGISSWLAWYQQKPEKAPKSLIYAASSLQSGVPSRFSGSGSGTDFTLTISSLQPEDFATYYCQQYNSYPYTFGQGTKLEIK ?
### Response 92
